// reported kon per item
- Measured Target: T1, Human FXIa protein (activated coagulation factor XI) (human, UniProt P03951 19-625)
- T1 construct: Bought from Enzyme Research Laboratories (HFXIa 1111a); also called factor XIa; HFXIa 1111a
- Experimental Details: SPR (Biacore T200), antibody captured on Protein A chip, FXIa as analyte, 1:1 Langmuir fit
Kindly provide the numeric value in M⁻¹ s⁻¹ only, without the unit symbol.

# example entries with known answers
[[record]]
binder = "antibody 3882 (antibody, human IgG4 S228P, kappa, V domains shown) VH: QVQLVQSGAEVKKPGSSVKVSCKASGGTFSDDYMHWVRQAPGQGLEWMGWIDPENGDTEYASKFQGRVTITADESTSTAYMELSSLRSEDTAVYYCLYGNFYYFDYWGQGTTVTVSS VL: EIVLTQSPATLSLSPGERATLSCSASSSINYMHWYQQKPGQAPKRWIYDTSKLASGVPARFSGSGSGTDFTLTISSLEPEDFAVYYCHQRSFSPLTFGQGTKLEIKR"
readout_kind = "kon"
observed_result = "1.06e+06"

[[record]]
binder = "antibody 3807 (antibody, V domains shown, Murine variable regions; also called murine antibody 3807; hybridoma clone 3807) VH: EVQLQQSGAELVRPGTSVKLSCIASGFNIKDDYMHWVKQRPEQGLEWIGWIDPENGDTEYASKFQGKATITADTSANTAYLQFSSLTSEDTAVYYCLYGNFYYFDYWGQGTTLTVSS VL: QIVLTQSPAIMSASPGEKVTMTCSASSSINYMHWYQQKPGTSPKRWIYDTSKLASGVPARFSGSGSGTSYSLTISSMEAEDAATYYCHQRSFSPLTFGAGTKLELK"
readout_kind = "kon"
observed_result = "1.59e+06"


Reported kon ( antibody 3875 (antibody, V domains shown, Humanized from 3807: VH is 3807-VH5 and VL is 3807-VL3) VH: QVQLVQSGAEVKKPGSSVKVSCKASGFNIKDDYMHWVRQAPGQGLEWMGWIDPENGDTEYASKFQGRVTITADTSANTAYMELSSLRSEDTAVYYCLYGNFYYFDYWGQGTTVTVSS VL: EIVLTQSPATLSLSPGERATLSCSASSSINYMHWYQQKPGQAPKRWIYDTSKLASGVPARFSGSGSGTDFTLTISSLEPEDFAVYYCHQRSFSPLTFGQGTKLEIK ) = 1.53e+06
